Answer each item with its documented IC50.
- Measured target: Histone deacetylase 3 (Homo sapiens)
- Sequence (O15379 whole entry): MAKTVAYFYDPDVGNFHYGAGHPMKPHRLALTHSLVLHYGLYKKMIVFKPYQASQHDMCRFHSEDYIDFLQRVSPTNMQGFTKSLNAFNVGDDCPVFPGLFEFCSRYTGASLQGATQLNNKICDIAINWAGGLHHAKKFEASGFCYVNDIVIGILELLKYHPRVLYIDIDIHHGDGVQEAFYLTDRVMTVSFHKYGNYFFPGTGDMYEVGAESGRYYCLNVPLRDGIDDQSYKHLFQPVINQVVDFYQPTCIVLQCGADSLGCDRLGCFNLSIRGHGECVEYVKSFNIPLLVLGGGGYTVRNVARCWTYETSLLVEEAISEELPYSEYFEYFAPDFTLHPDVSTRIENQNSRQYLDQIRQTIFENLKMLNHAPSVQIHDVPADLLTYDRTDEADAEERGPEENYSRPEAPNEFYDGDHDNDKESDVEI
- Protocol text: Inhibition of recombinant HDAC3 (unknown origin) using Ac-Leu-Gly-Lys (Ac)-AMC as substrate pretreated for 5 mins followed by substrate addition and measured after 30 mins
Write down the numeric answer in nM and omit the unit.

Task: Entry under review: `COc1cc(C(=O)c2csc(-c3ccc(NC(=O)CCCCC(=O)NO)cc3)n2)cc(OC)c1OC` . Reported IC50?
Result: 13100

Task: IC50 lookup needed for `COc1cc(C(=O)c2csc(-c3ccc(/C=C/C(=O)NO)cc3)n2)cc(OC)c1OC` , thanks.
Result: 19100

Task: GET /values?readout=IC50&item= `COc1cc(C(=O)c2csc(-c3ccc(OCCCCCCC(=O)Nc4ccccc4N)cc3)n2)cc(OC)c1OC`
Result: 470

Task: IC50 for `COc1cc(C(=O)c2csc(-c3ccc(NC(=O)CCCCC(=O)Nc4ccccc4N)cc3)n2)cc(OC)c1OC` ?
Result: 180

Task: Entry `COc1cc(C(=O)c2csc(-c3ccc(NC(=O)c4ccc(C(=O)Nc5ccccc5N)cc4)cc3)n2)cc(OC)c1OC` has what IC50?
Result: 3460

Task: Given the entry `COc1cc(C(=O)c2csc(-c3ccc(NC(=O)/C=C/C(=O)NO)cc3)n2)cc(OC)c1OC` , report its measured IC50.
Result: 13000

Task: Look at this compound and give its reported IC50. `COc1cc(C(=O)c2csc(-c3ccc(/C=C/C(=O)Nc4ccccc4N)cc3)n2)cc(OC)c1OC`
Result: 170

Task: Please give the measured IC50 for this compound: `COc1cc(C(=O)c2csc(-c3ccc(NCCC(=O)Nc4ccccc4N)cc3)n2)cc(OC)c1OC`
Result: 380

----------
- Measured target: Histone deacetylase 8 (Homo sapiens, UniProt Q9BY41)
- Sequence (Q9BY41 whole entry): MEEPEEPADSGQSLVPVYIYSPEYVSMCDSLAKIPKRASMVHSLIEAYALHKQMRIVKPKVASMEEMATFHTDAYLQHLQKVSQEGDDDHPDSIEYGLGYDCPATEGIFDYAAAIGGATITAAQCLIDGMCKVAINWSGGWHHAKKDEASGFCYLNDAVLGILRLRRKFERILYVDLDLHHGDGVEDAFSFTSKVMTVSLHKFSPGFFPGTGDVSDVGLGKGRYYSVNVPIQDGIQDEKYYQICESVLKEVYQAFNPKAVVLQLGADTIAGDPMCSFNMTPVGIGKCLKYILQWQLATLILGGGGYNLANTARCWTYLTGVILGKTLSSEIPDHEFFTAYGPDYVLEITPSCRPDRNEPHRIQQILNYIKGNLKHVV
- Protocol text: Inhibition of full length C-terminal his-tagged human recombinant HDAC8 ([…]) expressed in baculovirus in Sf9 insect cells using Ac-Leu-Gly-Lys (Tfa)-AMC as substrate pretreated for 5 mins followed by substrate addition and measured after 30 mins
Quantity measured: pIC50
FYI, pIC50 means -log10 of a concentration in mol per litre.

Task: Request the reported pIC50 associated with `COc1cc(C(=O)c2csc(-c3ccc(NC(=O)/C=C/C(=O)Nc4ccccc4N)cc3)n2)cc(OC)c1OC`
Result: 6.10

Task: If you can, please state the reported pIC50 value of `COc1cc(C(=O)c2csc(-c3ccc(NC(=O)c4ccc(C(=O)Nc5ccccc5N)cc4)cc3)n2)cc(OC)c1OC` .
Result: 5.68

Task: pIC50 for `COc1cc(C(=O)c2csc(-c3ccc(NC(=O)CCCCC(=O)Nc4ccccc4N)cc3)n2)cc(OC)c1OC` ?
Result: 5.06

Task: # lookup: pIC50 of `COc1cc(C(=O)c2csc(-c3ccc(OCCCCCCC(=O)Nc4ccccc4N)cc3)n2)cc(OC)c1OC`
Result: 5.13

Task: May I ask what pIC50 has been recorded for `COc1cc(C(=O)c2csc(-c3ccc(OCc4ccc(C(=O)NO)cc4)cc3)n2)cc(OC)c1OC` ?
Result: 5.10

Task: Look at this compound and give its reported pIC50. `COc1cc(C(=O)c2csc(-c3ccc(NCCC(=O)Nc4ccccc4N)cc3)n2)cc(OC)c1OC`
Result: 5.08

Task: Please look up its pIC50: `COc1cc(C(=O)c2csc(-c3ccc(OCCCC(=O)NO)cc3)n2)cc(OC)c1OC`
Result: 5.05

Task: For `COc1cc(C(=O)c2csc(-c3ccc(NC(=O)CC(=O)Nc4ccccc4N)cc3)n2)cc(OC)c1OC` , what is its reported pIC50?
Result: 4.92

----------
- Measured target: Histone deacetylase 7 (Homo sapiens)
- Sequence (Q8WUI4 whole entry, the tested form may be a part): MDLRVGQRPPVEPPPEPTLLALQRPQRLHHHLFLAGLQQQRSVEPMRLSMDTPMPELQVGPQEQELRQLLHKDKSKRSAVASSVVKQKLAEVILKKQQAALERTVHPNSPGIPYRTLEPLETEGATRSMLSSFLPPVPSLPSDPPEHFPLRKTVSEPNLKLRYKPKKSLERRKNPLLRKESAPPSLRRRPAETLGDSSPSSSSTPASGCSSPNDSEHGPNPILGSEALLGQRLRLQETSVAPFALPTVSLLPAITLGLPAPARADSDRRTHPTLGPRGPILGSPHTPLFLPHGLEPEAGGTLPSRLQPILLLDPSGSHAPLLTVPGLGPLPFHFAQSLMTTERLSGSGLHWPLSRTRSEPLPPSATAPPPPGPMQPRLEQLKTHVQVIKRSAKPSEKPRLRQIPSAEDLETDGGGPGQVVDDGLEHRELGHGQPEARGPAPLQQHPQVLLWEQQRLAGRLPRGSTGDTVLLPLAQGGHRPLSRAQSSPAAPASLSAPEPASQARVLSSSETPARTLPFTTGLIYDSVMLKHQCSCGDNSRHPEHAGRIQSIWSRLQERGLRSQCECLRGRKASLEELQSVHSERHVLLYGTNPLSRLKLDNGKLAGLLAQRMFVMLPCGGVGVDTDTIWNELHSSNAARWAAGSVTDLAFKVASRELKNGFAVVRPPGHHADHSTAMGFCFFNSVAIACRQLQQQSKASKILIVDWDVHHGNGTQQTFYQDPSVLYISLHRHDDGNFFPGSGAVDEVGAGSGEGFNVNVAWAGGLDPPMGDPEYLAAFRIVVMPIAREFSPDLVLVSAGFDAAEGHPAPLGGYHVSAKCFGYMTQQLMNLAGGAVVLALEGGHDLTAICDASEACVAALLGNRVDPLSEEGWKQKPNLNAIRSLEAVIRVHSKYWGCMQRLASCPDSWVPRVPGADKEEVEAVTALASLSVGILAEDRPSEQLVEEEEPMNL
- Protocol text: Inhibition of full length N-terminal GST-tagged human recombinant HDAC7 (501 to 952 residues) expressed in Baculovirus system using Ac-Leu-Gly-Lys (Ac)-AMC as substrate pretreated for 5 mins followed by substrate addition and measured after 30 mins
Quantity measured: IC50 (µM)
State just the number; it will be interpreted in µM.

Task: Given `COc1cc(C(=O)c2csc(-c3ccc(NC(=O)/C=C/C(=O)Nc4ccccc4N)cc3)n2)cc(OC)c1OC` , state its recorded IC50.
Result: 43

----------
- Measured target: UniProt O15379
- Protocol text: Inhibition of recombinant HDAC3 (unknown origin) using Ac-Leu-Gly-Lys (Ac)-AMC as substrate pretreated for 5 mins followed by substrate addition and measured after 30 mins
Quantity measured: pIC50
// pIC50 is dimensionless: -log10 of concentration (M)

Task: Item `COc1cc(C(=O)c2csc(-c3ccc(OCc4ccc(C(=O)NO)cc4)cc3)n2)cc(OC)c1OC` has what recorded pIC50?
Result: 4.90

Task: Which pIC50 value is on record for `COc1cc(C(=O)c2csc(-c3ccc(NCC(=O)Nc4ccccc4N)cc3)n2)cc(OC)c1OC` ?
Result: 5.75

Task: Give its pIC50 value. Item: `COc1cc(C(=O)c2csc(-c3ccc(NC(=O)/C=C/C(=O)Nc4ccccc4N)cc3)n2)cc(OC)c1OC`
Result: 5.40

Task: # get_value(readout='pIC50', item= `COc1cc(C(=O)c2csc(-c3ccc(NC(=O)CCCCCC(=O)NO)cc3)n2)cc(OC)c1OC` )
Result: 4.91

Task: I would be grateful if you could share the reported pIC50 for `COc1cc(C(=O)c2csc(-c3ccc(NC(=O)CCCC(=O)NO)cc3)n2)cc(OC)c1OC` .
Result: 4.87

Task: Which pIC50 reading was recorded for the molecule `COc1cc(C(=O)c2csc(-c3ccc(NC(=O)CC(=O)Nc4ccccc4N)cc3)n2)cc(OC)c1OC` ?
Result: 6.44

Task: Recorded pIC50 of `COc1cc(C(=O)c2csc(-c3ccc(NC(=O)CCCCCC(=O)Nc4ccccc4N)cc3)n2)cc(OC)c1OC` , please.
Result: 6.41

----------
- Measured target: Protein deacetylase HDAC6 (Homo sapiens) (UniProt Q9UBN7)
- Sequence (whole entry): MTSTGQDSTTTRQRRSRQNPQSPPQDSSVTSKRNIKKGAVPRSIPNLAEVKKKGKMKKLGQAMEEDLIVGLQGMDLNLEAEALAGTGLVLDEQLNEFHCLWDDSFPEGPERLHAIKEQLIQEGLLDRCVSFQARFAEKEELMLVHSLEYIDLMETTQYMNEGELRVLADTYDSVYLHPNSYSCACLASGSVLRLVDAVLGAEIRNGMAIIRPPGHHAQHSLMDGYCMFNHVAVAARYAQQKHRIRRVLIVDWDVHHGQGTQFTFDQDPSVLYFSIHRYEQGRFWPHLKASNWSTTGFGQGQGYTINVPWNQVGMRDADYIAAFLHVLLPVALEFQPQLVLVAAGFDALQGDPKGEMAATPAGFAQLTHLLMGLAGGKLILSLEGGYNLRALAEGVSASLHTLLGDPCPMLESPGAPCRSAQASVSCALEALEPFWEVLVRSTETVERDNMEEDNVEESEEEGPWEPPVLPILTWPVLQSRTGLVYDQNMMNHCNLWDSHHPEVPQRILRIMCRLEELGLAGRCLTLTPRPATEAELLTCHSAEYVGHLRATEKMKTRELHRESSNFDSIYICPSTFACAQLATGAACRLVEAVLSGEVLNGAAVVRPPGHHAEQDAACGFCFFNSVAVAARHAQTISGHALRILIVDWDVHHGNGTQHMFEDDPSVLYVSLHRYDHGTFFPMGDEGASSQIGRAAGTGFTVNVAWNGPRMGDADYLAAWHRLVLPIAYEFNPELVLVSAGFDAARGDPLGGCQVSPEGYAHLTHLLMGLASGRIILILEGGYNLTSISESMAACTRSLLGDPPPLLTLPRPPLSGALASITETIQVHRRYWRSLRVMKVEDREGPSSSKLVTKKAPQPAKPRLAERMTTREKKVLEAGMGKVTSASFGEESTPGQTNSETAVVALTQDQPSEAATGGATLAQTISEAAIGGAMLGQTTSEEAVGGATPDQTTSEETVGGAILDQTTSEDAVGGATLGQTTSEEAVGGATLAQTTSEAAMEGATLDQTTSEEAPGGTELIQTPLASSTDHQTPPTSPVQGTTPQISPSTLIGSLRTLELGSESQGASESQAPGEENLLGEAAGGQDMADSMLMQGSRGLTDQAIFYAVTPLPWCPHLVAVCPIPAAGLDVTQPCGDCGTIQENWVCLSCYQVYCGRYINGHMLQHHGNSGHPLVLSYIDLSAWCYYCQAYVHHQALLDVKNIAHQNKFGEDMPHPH
- Protocol text: Inhibition of recombinant HDAC6 (unknown origin) at 1 uM relative to control
Quantity measured: inhibition

Task: Fill blank: measured inhibition of the molecule `COc1cc(C(=O)c2csc(-c3ccc(NC(=O)CCCCCC(=O)NO)cc3)n2)cc(OC)c1OC` is ____.
Result: > 50%

Task: What does the data say about its inhibition? Entry: `COc1cc(C(=O)c2csc(-c3ccc(NC(=O)/C=C/C(=O)NO)cc3)n2)cc(OC)c1OC`
Result: > 50%

Task: So what does the record say about inhibition for `COc1cc(C(=O)c2csc(-c3ccc(/C=C/C(=O)NO)cc3)n2)cc(OC)c1OC` ?
Result: > 50%

Task: Data request, read-out inhibition, for `COc1cc(C(=O)c2csc(-c3ccc(OCc4ccc(/C=C/C(=O)NO)cc4)cc3)n2)cc(OC)c1OC`
Result: > 50%

Task: What value of measured inhibition is listed for `COc1cc(C(=O)c2csc(-c3ccc(NC(=O)CCCCC(=O)NO)cc3)n2)cc(OC)c1OC` ?
Result: > 50%

Task: Which measured inhibition value corresponds to `COc1cc(C(=O)c2csc(-c3ccc(OCc4ccc(C(=O)NO)cc4)cc3)n2)cc(OC)c1OC` ?
Result: > 50%

Task: State the recorded inhibition for this entry: `COc1cc(C(=O)c2csc(-c3ccc(NC(=O)CCC(=O)NO)cc3)n2)cc(OC)c1OC`
Result: > 50%

Task: What does the data say about its inhibition? Entry: `COc1cc(C(=O)c2csc(-c3ccc(OCCCC(=O)NO)cc3)n2)cc(OC)c1OC`
Result: > 50%

Task: Reported inhibition for `COc1cc(C(=O)c2csc(-c3ccc(NC(=O)CCCC(=O)NO)cc3)n2)cc(OC)c1OC` : what is it?
Result: > 50%
